Tested on: Blood
Assay: Antiinflammatory activity in human whole blood assessed as inhibition of LPS-induced TNFalpha production after 6 hrs
Type: functional, tissue-based
measuredAttribute: pIC50
One number for each entry, as −log10 of the molar value.

{"columns": ["compound", "pIC50"],
 "data": [
  ["CC1CC(c2c[nH]c(-c3ccc(F)cc3)c2-c2ccncc2)=CCN1C (stereo not drawn)", 5.89]
]}

# next compound below
Any idea what its pIC50 is? The compound is CCN1CCC(c2c[nH]c(-c3ccc(F)cc3)c2-c2ccncc2)=CC1C (stereo not drawn)
5.79

----------
Tested on: Blood
Experiment: Antiinflammatory activity in human whole blood assessed as inhibition of LPS-induced TNFalpha production after 6 hrs
Assay type: functional, tissue-based
Give IC50 for every item shown.
One number for each entry, in nM.

{"columns": ["compound", "targetDesc", "recordedValue"],
 "data": [
  ["CC1C=C(c2c[nH]c(-c3ccc(F)cc3)c2-c2ccncc2)CCN1 (stereo not given)", "Blood", 710],
  ["CN1CC=C(c2c[nH]c(-c3ccc(F)cc3)c2-c2ccncc2)CC1", "Blood", 3960],
  ["CC1C=C(c2c[nH]c(-c3ccc(F)cc3)c2-c2ccncc2)CCN1C (stereo not given)", "Blood", 630],
  ["CCCN1CCC(c2c[nH]c(-c3ccc(F)cc3)c2-c2ccncc2)=CC1C (stereo not given)", "Blood", 440]
]}

Would you mind giving IC50 for every compound in the list below?
1. CCN1CC=C(c2c[nH]c(-c3ccc(F)cc3)c2-c2ccncc2)CC1
2. CN1C(C)(C)C=C(c2c[nH]c(-c3ccc(F)cc3)c2-c2ccncc2)CC1(C)C
3. CCCCCCCCN1CC=C(c2c[nH]c(-c3ccc(F)cc3)c2-c2ccncc2)CC1
4. CCCN1CC=C(c2c[nH]c(-c3ccc(F)cc3)c2-c2ccncc2)CC1
5. CC(C)N1CC=C(c2c[nH]c(-c3ccc(F)cc3)c2-c2ccncc2)CC1

1: 1210; 2: 8440; 3: 1380; 4: 520; 5: 980

Recorded values, source ChEMBL document CHEMBL1156222.
